assayProtocol: photoluminescence quantum yield (fraction); solvent given as SMILES
conditionNotes: in OCC(F)(F)F
API: label(entry) gives Yes if the entry's photoluminescence quantum yield is strictly smaller than 0.3; on equality or larger values it gives No.

Completed entries (count: 3):
{"structureSmiles": "Cc1cc(=O)oc2c1cc(Br)c1occ(C)c12", "assignedClass": "Yes"}
{"structureSmiles": "CNC1=C2C=CC=[N+]2[B-](F)(F)n2cccc21", "assignedClass": "Yes"}
{"structureSmiles": "CCC1=C(C)C2=Cc3cccn3[B-](F)(F)[N+]2=C1C", "assignedClass": "No"}

## Task Decide: photoluminescence quantum yield of CCC1=C(C)C2=Cc3c(I)c(I)c(I)n3[B-](F)(F)[N+]2=C1C strictly below 0.3?
## Result Yes

## Task Try COc1nnc(Cl)nn1 next.
## Result Yes

## Task Try COc1ccc2cc3c(C)cc(=O)oc3cc2c1 next.
## Result No

## Task Try CC1=C(C(C)(C)C)C(C)=[N+]2C1=C(C)c1c(C)c(C(C)(C)C)c(C)n1[B-]2(F)F next.
## Result No

###

In this section we review reported photoluminescence quantum yield values for a set of compounds.
assayProtocol: photoluminescence quantum yield (fraction); solvent given as SMILES
conditionNotes: in C1CCOC1
Hey, just send me the number, nothing else.

Use the examples below as a reference point.
{"structureSmiles": "Cc1ccc(C2=C3C=CC(C#Cc4ccccc4)=[N+]3[B-](F)(F)n3c(C#Cc4ccccc4)ccc32)cc1", "observedMeasurement": 0.99}
{"structureSmiles": "CCN(CC)c1ccc(-c2nc3c(c4c2-c2ccc(C#N)cc2CC4)-c2ccc(C#N)cc2CC3)cc1", "observedMeasurement": 0.74}
{"structureSmiles": "CN(C)c1ccc(C2=Nc3sc4c(F)c(F)c(F)c(F)c4[n+]3[B-](F)(F)O2)cc1", "observedMeasurement": 0.47}
{"structureSmiles": "CCCCC1(CCCC)c2cc(C#Cc3ccc(C=C4c5ccccc5CCc5ccccc54)cc3)ccc2-c2ccc(C#Cc3ccc(C=C4c5ccccc5CCc5ccccc54)cc3)cc21", "observedMeasurement": 0.027}
{"structureSmiles": "Cc1ccc(C2=C3C=CC(Cl)=[N+]3[B-](F)(F)n3c(Cl)ccc32)cc1", "observedMeasurement": 0.3}

## Task Look at this compound and give its reported photoluminescence quantum yield. COc1cc2c(cc1/C=C(\C#N)c1nc3ccccc3s1)c1ccccc1n2C
## Result 0.002

## Task Try Cc1ccc(-c2cnc3nn4ccccc4c3n2)cc1 next.
## Result 0.26

## Task Try c1ccc(/C(=C(\c2ccccc2)c2ccccc2-c2ccc(-c3ccccc3)cc2)c2ccccc2-c2ccc(-c3ccccc3)cc2)cc1 next.
## Result 0.32

###

In this section we review reported photoluminescence quantum yield values for a set of compounds.
assayProtocol: photoluminescence quantum yield (fraction); solvent given as SMILES
conditionNotes: in CC#N
Hey, just send me the number, nothing else.

Use the examples below as a reference point.
{"compound": "Nc1ccc2c(c1)C(=O)N(C13C[C@H]4C[C@@H](C1)C[C@@H](C3)C4)C2=O", "observedMeasurement": 0.62}
{"compound": "COC(=O)C([NH3+])Cc1ccc2oc(-c3ccncc3)nc2c1 (stereo unspecified)", "observedMeasurement": 0.05}
{"compound": "N#Cc1coc2ccccc2c1=O", "observedMeasurement": 0.0005}
{"compound": "O=S(=O)([O-])c1ccc(O)c2ccccc12", "observedMeasurement": 0.17}
{"compound": "N#Cc1nn(-c2ccccc2C(F)(F)F)nc1N1CCCC1", "observedMeasurement": 0.71}
{"compound": "CCCOc1ccc(/C=C/C=C/C=C/c2ccc([N+](=O)[O-])cc2)cc1", "observedMeasurement": 0.011}
{"compound": "CCC1=C(C)C2=Cc3cc4c(cc3B(O)N2C1=O)OCO4", "observedMeasurement": 0.57}
{"compound": "N#C/C(=N/Nc1ccc(C#N)cc1)c1nc(-c2ccccc2)cs1", "observedMeasurement": 0}
{"compound": "CC1(C)c2cc(C#N)ccc2-c2ccc(N3c4ccccc4Oc4ccccc43)cc21", "observedMeasurement": 0.001}
{"compound": "CN(C)CCN(Cc1c2ccccc2cc2ccccc12)c1ccc([N+](=O)[O-])cn1", "observedMeasurement": 0.0383}

## Task Look at this compound and give its reported photoluminescence quantum yield. CN(C)c1ccc(C2=Cc3c4ccccc4c4ccccc4[n+]3[B-](F)(F)O2)cc1
## Result 0.447

## Task Try c1csc(-c2ccc(-c3cccs3)s2)c1 next.
## Result 0.09

## Task Try COC(=O)c1cc(=O)n(C)c2cc(-c3ccc(N4CCN(C)CC4)cc3)sc12 next.
## Result 0.03

## Task Try C(=C\c1cccnc1)/c1ccc(Nc2ccccc2)cc1 next.
## Result 0.25

## Task Try O=c1[nH]c(=O)c2nc3ccccc3nc2[nH]1 next.
## Result 0.009

## Task Try O=CC12N=N[C@](C=O)(C3C4CCC(C4)C31)C1[C@@H]3CC[C@@H](C3)[C@H]12 (stereo partly specified) next.
## Result 0.049

## Task Try CN(C)c1ccc(-c2nc(C#N)c(C#N)n2C)cc1 next.
## Result 0.02

###

assayProtocol: photoluminescence quantum yield (fraction); solvent given as SMILES
conditionNotes: in Cc1ccccc1
observationType: photoluminescence quantum yield
Hey, just send me the number, nothing else.

Use the examples below as a reference point.
{"structureSmiles": "CN(C)c1ccc(/C=C/c2ccc([N+](=O)[O-])c(O)c2)cc1", "photoluminescence quantum yield": 0.09}
{"structureSmiles": "CC1(C)c2ccccc2N(c2ccc(C(=CC#N)c3ccc(N4c5ccccc5C(C)(C)c5ccccc54)cc3)cc2)c2ccccc21", "photoluminescence quantum yield": 0.313}

## Task Look at this molecule and give its reported photoluminescence quantum yield. CCn1c2ccccc2c2cc(-c3cc(-c4ccc5c(c4)c4ccccc4n5CC)nc(N4CCCCC4)n3)ccc21
## Result 0.16

## Task Try C1=[N+](c2ccccc2)[B-]2(Oc3c1ccc1c4c(ccc31)C=[N+](c1ccccc1)[B-]1(O4)c3ccccc3Oc3ccccc31)c1ccccc1Oc1ccccc12 next.
## Result 0.77

###

assayProtocol: photoluminescence quantum yield (fraction); solvent given as SMILES
conditionNotes: in C1CCOC1
In this section we review reported photoluminescence quantum yield values for a set of compounds.
Hey, just send me the number, nothing else.

Use the examples below as a reference point.
{"compound": "Cc1c(C2=[N+]3C(=Cc4c(C)c5ccccc5n4[B-]3(F)F)c3ccccc32)[nH]c2ccccc12", "photoluminescence quantum yield": 0.04}
{"compound": "CN(C)c1ccc2c(c1)Cc1ccccc1-2", "photoluminescence quantum yield": 0.39}
{"compound": "CC(C)(C)c1ccc(-c2c(-c3ccc(N(c4ccccc4)c4ccccc4)cc3)c(C#N)c(-c3ccc(N(c4ccccc4)c4ccccc4)cc3)c(-c3ccc(C(C)(C)C)cc3)c2-c2ccc(C(C)(C)C)cc2)cc1", "photoluminescence quantum yield": 0.686}
{"compound": "COc1cc(/C=C/c2ccccn2)c(OC)cc1C=O", "photoluminescence quantum yield": 0.19}
{"compound": "COCCOCCOCCOc1ccc(/C=C/C2=[N+]3C(=C(c4cc(OC)cc(OC)c4)c4c(C)c(I)c(/C=C/c5ccc(OCCOCCOCCOC)cc5)n4[B-]3(F)F)C(C)=C2I)cc1", "photoluminescence quantum yield": 0.19}

## Task Look at this compound and give its reported photoluminescence quantum yield. CCCCCCCCCCCn1cccc1C1=[N+]2C(=Cc3c(C)cc(C)n3[B-]2(F)F)c2ccccc21
## Result 0.98

## Task Try CCCCCCCc1cc2c(o1)=CC1=C3c4cc5oc(CCCCCCC)cc5n4[B-](F)(F)[n+]4nnn(c43)[B-](F)(F)[N+]=21 next.
## Result 0.34

###

In this section we review reported photoluminescence quantum yield values for a set of molecules.
assayProtocol: photoluminescence quantum yield (fraction); solvent given as SMILES
conditionNotes: in CCO
Hey, just send me the number, nothing else.

{"structureSmiles": "CN(C)c1ccc2cc3ccc(=[N+](C)C)cc-3oc2c1", "photoluminescence quantum yield": 0.48}
{"structureSmiles": "CN(C)c1ccc2c(c1)Cc1ccccc1-2", "photoluminescence quantum yield": 0.2}
{"structureSmiles": "Cc1ccccc1/C(C#N)=C/c1ccc(N(C)C)cc1", "photoluminescence quantum yield": 0.006}
{"structureSmiles": "CCOC(=O)c1cc(C(=O)OCC)c2cc(N(C)C)ccc2n1", "photoluminescence quantum yield": 0.595}
{"structureSmiles": "Cc1cnc(NC(=O)C2=C([O-])c3ccccc3S(=O)(=O)N2C)s1", "photoluminescence quantum yield": 0.00427}

## Task Look at this molecule and give its reported photoluminescence quantum yield. O=C(c1ccc(N(c2ccccc2)c2ccccc2)cc1)[C@H]1[C@H](c2cccs2)C[C@](O)(c2ccccn2)C[C@]1(O)c1ccccn1
## Result 0.01

## Task Try CCN(CC)c1ccc2cc(C#N)/c(=N\C(C)=O)oc2c1 next.
## Result 0.15

These entries and their values trace back to the Deep4Chem optical property database.
